Provide the reported Henry solubility constant Hcp at 293 K of each item.
assaySummary: Henry solubility constant Hcp at 293 K (mol/(m3 Pa))
appliedConditions: reference: Murphy et al. (1987)
Write no unit; give the number alone.

-- ask Given the molecule `Clc1ccc(-c2c(Cl)c(Cl)cc(Cl)c2Cl)c(Cl)c1Cl` , what is its reported Henry solubility constant Hcp at 293 K?
-- reply 0.3

-- ask Given the molecule `Clc1cc(Cl)c(-c2ccc(Cl)c(Cl)c2Cl)cc1Cl` , what is its reported Henry solubility constant Hcp at 293 K?
-- reply 0.13

-- ask Given the molecule `Clc1ccc(-c2ccc(Cl)c(Cl)c2)c(Cl)c1` , what is its reported Henry solubility constant Hcp at 293 K?
-- reply 0.049

-- ask Given the molecule `Clc1ccc(Cl)c(-c2cc(Cl)c(Cl)c(Cl)c2Cl)c1` , what is its reported Henry solubility constant Hcp at 293 K?
-- reply 0.1

-- ask Given the molecule `Clc1ccccc1-c1ccccc1Cl` , what is its reported Henry solubility constant Hcp at 293 K?
-- reply 0.033
